Test system: 556581-035-R-J1-PDC complex spheroid growth
Assay: Anticancer human tumor 556581-035-R-J1-PDC patient-derived ovarian carcinoma cell line growth inhibition [AhR]
Settings: second compound 3.16 µM; first compound 0.01 µM; stronger effect = lower value
Task for the reader: assign each of the following compounds its reported viability, T/C.
Give the value, in units of %, as a plain number.

// viability, T/C value for Cn1ncnc1C1c2n[nH]c(=O)c3cc(F)cc(c23)NC1c1ccc(F)cc1 (stereo not drawn) + CC(CO)NC(=O)c1cc(-c2ccc(Cl)cc2)nn(-c2cnn(C)c2)c1=O : 93.3

The compound Nc1ncn(C2CC(O)C(CO)O2)c(=O)n1 (stereo not drawn) + Cc1cncc(-c2nc(NCCc3c[nH]c4ccccc34)c3ncn(C(C)C)c3n2)c1 showed viability, T/C equal to 95.5

Sure, the documented viability, T/C for CC1COCCN1c1cc(-c2ccnn2C)c2ccnc(-c3ccn[nH]3)c2n1 (stereo not drawn) + Cc1cncc(-c2nc(NCCc3c[nH]c4ccccc34)c3ncn(C(C)C)c3n2)c1 is 95.1

// viability, T/C lookup, compound = Cn1ncnc1C1c2n[nH]c(=O)c3cc(F)cc(c23)NC1c1ccc(F)cc1 (stereo not drawn) + Cc1cncc(-c2nc(NCCc3c[nH]c4ccccc34)c3ncn(C(C)C)c3n2)c1 , result: 91.8

The value of viability, T/C measured for the compound CC[C@@]1(O)C(=O)OCc2c1cc1n(c2=O)Cc2cc3c(CN(C)C)c(O)ccc3nc2-1 + CC(CO)NC(=O)c1cc(-c2ccc(Cl)cc2)nn(-c2cnn(C)c2)c1=O turned out to be 78.2

The recorded viability, T/C for entry Nc1ncn(C2CC(O)C(CO)O2)c(=O)n1 (stereo not drawn) + Cc1ccccc1N=Nc1ccc(NC(=O)c2ccnn2C)c(C)c1 equals 81.6

Measured viability, T/C, Nc1ncn(C2CC(O)C(CO)O2)c(=O)n1 (stereo not drawn) + CC(CO)NC(=O)c1cc(-c2ccc(Cl)cc2)nn(-c2cnn(C)c2)c1=O : 90.7

The reported value for CC[C@@]1(O)C(=O)OCc2c1cc1n(c2=O)Cc2cc3c(CN(C)C)c(O)ccc3nc2-1 + Cc1ccccc1N=Nc1ccc(NC(=O)c2ccnn2C)c(C)c1 in terms of viability, T/C is 72

====

Can you tell me viability, T/C for the items I'm about to list?
Test system: 556581-035-R-J1-PDC complex spheroid growth
Experiment: Anticancer human tumor 556581-035-R-J1-PDC cell line growth inhibition [AhR];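 for viability, T/C: compound exposure lasted 7 days; 100% = DMSO vehicle control growth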
Settings: second compound 10 µM; first compound 0.1 µM; stronger effect = lower value
Respond with the bare value in %.

Lab note: measured viability, T/C of COc1ccc([C@@H](O)c2cc(-c3ncnc4cc(N5CCOCC5)ccc34)c(F)cc2Cl)nn1 + CC(CO)NC(=O)c1cc(-c2ccc(Cl)cc2)nn(-c2cnn(C)c2)c1=O was 110

Recorded result, COc1ccc([C@@H](O)c2cc(-c3ncnc4cc(N5CCOCC5)ccc34)c(F)cc2Cl)nn1 + Cc1cncc(-c2nc(NCCc3c[nH]c4ccccc34)c3ncn(C(C)C)c3n2)c1 , viability, T/C: 85.7

In plain terms, COc1cccc2c1C(=O)c1c(O)c3c(c(O)c1C2=O)CC(O)(C(=O)CO)CC3OC1CC(N)C(O)C(C)O1 (stereo unspecified) + CC(CO)NC(=O)c1cc(-c2ccc(Cl)cc2)nn(-c2cnn(C)c2)c1=O has a documented viability, T/C of 87

get_value(item= COc1cccc2c1C(=O)c1c(O)c3c(c(O)c1C2=O)CC(O)(C(=O)CO)CC3OC1CC(N)C(O)C(C)O1 (stereo unspecified) + Cc1cncc(-c2nc(NCCc3c[nH]c4ccccc34)c3ncn(C(C)C)c3n2)c1 , readout=viability, T/C) returns 68.8

# compound Nc1ccccc1NC(=O)c1ccc(CNC(=O)OCc2cccnc2)cc1 + Cc1cncc(-c2nc(NCCc3c[nH]c4ccccc34)c3ncn(C(C)C)c3n2)c1 ; its viability, T/C = 87

O=C(C=Cc1cccc(S(=O)(=O)Nc2ccccc2)c1)NO + Cc1cncc(-c2nc(NCCc3c[nH]c4ccccc34)c3ncn(C(C)C)c3n2)c1 yielded viability, T/C of 88.8

// recorded viability, T/C for O=C(C=Cc1cccc(S(=O)(=O)Nc2ccccc2)c1)NO + CC(CO)NC(=O)c1cc(-c2ccc(Cl)cc2)nn(-c2cnn(C)c2)c1=O : 104

// sample CC1(C)CCC(CN2CCN(c3ccc(C(=O)NS(=O)(=O)c4ccc(NCC5CCOCC5)c([N+](=O)[O-])c4)c(Oc4cnc5[nH]ccc5c4)c3)CC2)=C(c2ccc(Cl)cc2)C1 + CC(CO)NC(=O)c1cc(-c2ccc(Cl)cc2)nn(-c2cnn(C)c2)c1=O , its viability, T/C was 115

Please fill in: viability, T/C reported for Cn1ncnc1C1c2n[nH]c(=O)c3cc(F)cc(c23)NC1c1ccc(F)cc1 (stereo unspecified) + CC(CO)NC(=O)c1cc(-c2ccc(Cl)cc2)nn(-c2cnn(C)c2)c1=O = 97.2

The compound listed as CC1COCCN1c1cc(C2(S(C)(=N)=O)CC2)nc(-c2ccnc3[nH]ccc23)n1 (stereo unspecified) + CC(CO)NC(=O)c1cc(-c2ccc(Cl)cc2)nn(-c2cnn(C)c2)c1=O shows viability, T/C equal to 119

According to the records, this compound Cn1ncnc1C1c2n[nH]c(=O)c3cc(F)cc(c23)NC1c1ccc(F)cc1 (stereo unspecified) + Cc1ccccc1N=Nc1ccc(NC(=O)c2ccnn2C)c(C)c1 displays viability, T/C of 92.3

====

Exercise: for every item that follows, state its recorded pIC50.
Test system: 556581-035-R-J1-PDC complex spheroid growth
Assay: Anticancer human tumor 556581-035-R-J1-PDC cell line growth inhibition [AhR]
Conditions: curve of compound
pIC50: −log10 of the molar value.

Note to self: pIC50 recorded for COc1cc(Nc2ncc3c(n2)-c2ccc(Cl)cc2C(c2c(F)cccc2OC)=NC3)ccc1C(=O)O was < 5.00

Per the records, this molecule ( O=C(c1cc(Cc2n[nH]c(=O)c3ccccc23)ccc1F)N1CCN(C(=O)C2CC2)CC1 ) has pIC50 equal to < 5.00

For CC(C)c1c(-c2ccccc2)nc2c(C#N)c[nH]n2c1=O the molecule record lists pIC50 as < 5.00

For this molecule ( CC1(C)CCC(CN2CCN(c3ccc(C(=O)NS(=O)(=O)c4ccc(NCC5CCOCC5)c([N+](=O)[O-])c4)c(Oc4cnc5[nH]ccc5c4)c3)CC2)=C(c2ccc(Cl)cc2)C1 ), measured pIC50 is < 5.00

Nc1ncn(C2CC(O)C(CO)O2)c(=O)n1 (centres undefined) yielded pIC50 of < 6.00

Measured pIC50 of NS(=O)(=O)OCC1CC(n2ccc3c(NC4CCc5ccccc54)ncnc32)CC1O (centres undefined) : < 5.00

Short answer for Nc1ncn(C2CC(O)C(CO)S2)c(=O)n1 (centres undefined) : pIC50 was < 6.52

# pIC50 of Cn1ncnc1C1c2n[nH]c(=O)c3cc(F)cc(c23)NC1c1ccc(F)cc1 (centres undefined) = < 7.00

pIC50 for CC1COCCN1c1cc(C2(S(C)(=N)=O)CC2)nc(-c2ccnc3[nH]ccc23)n1 (centres undefined) is < 5.00

====

System: 556581-035-R-J1-PDC complex spheroid growth
Experiment: Anticancer human tumor 556581-035-R-J1-PDC cell line growth inhibition [AhR]
Settings: curve of first compound; second compound 3.16 µM
Source text: Multicellular complex tumor spheroid response to aryl hydrocarbon receptor antagonists in combination with a variety of drugs and investigational agents in selected tumor cell lines […] Compounds. […] If the clinical Cmax for an agent had not been determined, the highest concentration tested was 10 microM (Table 1). […]
Can you tell me IC50 for the items I'm about to list?

Record CC(C)c1c(-c2ccccc2)nc2c(C#N)c[nH]n2c1=O + CC(CO)NC(=O)c1cc(-c2ccc(Cl)cc2)nn(-c2cnn(C)c2)c1=O , field IC50: > 10 µM

In plain terms, O=C(C=Cn1cnc(-c2cc(C(F)(F)F)cc(C(F)(F)F)c2)n1)NNc1cnccn1 + Cc1ccccc1N=Nc1ccc(NC(=O)c2ccnn2C)c(C)c1 has a documented IC50 of > 3 µM

Short answer for CCN(c1cc(-c2ccc(CN3CCOCC3)cc2)cc(C(=O)NCc2c(C)cc(C)[nH]c2=O)c1C)C1CCOCC1 + Cc1ccccc1N=Nc1ccc(NC(=O)c2ccnn2C)c(C)c1 : IC50 was > 3 µM

====

Tested on: 556581-035-R-J1-PDC complex spheroid growth
Test: Anticancer human tumor 556581-035-R-J1-PDC cell line growth inhibition [AhR];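 for viability, T/C: compound exposure lasted 7 days; 100% = DMSO vehicle control growth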
Conditions: second compound 10 µM; first compound 0.1 µM; stronger effect = lower value
Measurement Kind: viability, T/C (%)
Just the number please, in %, no unit attached.

viability, T/C measured on COc1cc(Nc2ncc3c(n2)-c2ccc(Cl)cc2C(c2c(F)cccc2OC)=NC3)ccc1C(=O)O + Cc1cncc(-c2nc(NCCc3c[nH]c4ccccc34)c3ncn(C(C)C)c3n2)c1 = 74.1

viability, T/C for Nc1ccn(C2OC(CO)C(O)C2(F)F)c(=O)n1 (stereo unspecified) + Cc1cncc(-c2nc(NCCc3c[nH]c4ccccc34)c3ncn(C(C)C)c3n2)c1 is 64.2

Data point: CC1COCCN1c1cc(C2(S(C)(=N)=O)CC2)nc(-c2ccnc3[nH]ccc23)n1 (stereo unspecified) + Cc1cncc(-c2nc(NCCc3c[nH]c4ccccc34)c3ncn(C(C)C)c3n2)c1 ; viability, T/C = 90.1

For reference, reported viability, T/C for O=C(c1cc(Cc2n[nH]c(=O)c3ccccc23)ccc1F)N1CCN(C(=O)C2CC2)CC1 + CC(CO)NC(=O)c1cc(-c2ccc(Cl)cc2)nn(-c2cnn(C)c2)c1=O stands at 105

GET /value?item= CC[C@@]1(O)C(=O)OCc2c1cc1n(c2=O)Cc2cc3c(CN(C)C)c(O)ccc3nc2-1 + Cc1cncc(-c2nc(NCCc3c[nH]c4ccccc34)c3ncn(C(C)C)c3n2)c1 &field=viability, T/C returns 67.2

Lab book: viability, T/C of Cn1ncnc1C1c2n[nH]c(=O)c3cc(F)cc(c23)NC1c1ccc(F)cc1 (stereo unspecified) + Cc1cncc(-c2nc(NCCc3c[nH]c4ccccc34)c3ncn(C(C)C)c3n2)c1 noted as 79.1
